B1: CPEB3 Ribozyme (parent)
chain: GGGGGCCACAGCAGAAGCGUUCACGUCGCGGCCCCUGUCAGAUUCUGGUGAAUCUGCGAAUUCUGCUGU

Variants of: B1
EXPERIMENT SUMMARY: self-cleavage, relative activity (ratio to wild type); higher = more cleavage; co-transcriptional
Each record gets a class by self-cleavage: L = under 0.2, M = from 0.2 up to 0.6, H = 0.6 and over

{"VARIANT DESCRIPTION": "U21C A52U", "ASSIGNED CLASS": "H"}
{"VARIANT DESCRIPTION": "C24U U46G", "ASSIGNED CLASS": "H"}
{"VARIANT DESCRIPTION": "G4U U43C", "ASSIGNED CLASS": "M"}
{"VARIANT DESCRIPTION": "G5C U55C", "ASSIGNED CLASS": "L"}
{"VARIANT DESCRIPTION": "U55G U67G", "ASSIGNED CLASS": "H"}
{"VARIANT DESCRIPTION": "A13U G25U", "ASSIGNED CLASS": "L"}
{"VARIANT DESCRIPTION": "G37A A52C", "ASSIGNED CLASS": "M"}
{"VARIANT DESCRIPTION": "C9A U38G", "ASSIGNED CLASS": "L"}
{"VARIANT DESCRIPTION": "C32U A40C", "ASSIGNED CLASS": "H"}
{"VARIANT DESCRIPTION": "U36G U46G", "ASSIGNED CLASS": "L"}
{"VARIANT DESCRIPTION": "G28U U36A", "ASSIGNED CLASS": "L"}
{"VARIANT DESCRIPTION": "G14A G37C", "ASSIGNED CLASS": "L"}
{"VARIANT DESCRIPTION": "C24A U61A", "ASSIGNED CLASS": "M"}
{"VARIANT DESCRIPTION": "G19A C63U", "ASSIGNED CLASS": "L"}
{"VARIANT DESCRIPTION": "G37U A60C", "ASSIGNED CLASS": "M"}
{"VARIANT DESCRIPTION": "A16G C18G", "ASSIGNED CLASS": "L"}
{"VARIANT DESCRIPTION": "U53G U67G", "ASSIGNED CLASS": "H"}
{"VARIANT DESCRIPTION": "G4C C35U", "ASSIGNED CLASS": "L"}
{"VARIANT DESCRIPTION": "U26A U49G", "ASSIGNED CLASS": "H"}
{"VARIANT DESCRIPTION": "C6G C35G", "ASSIGNED CLASS": "L"}
{"VARIANT DESCRIPTION": "C7G G17C", "ASSIGNED CLASS": "L"}
{"VARIANT DESCRIPTION": "G14U A51U", "ASSIGNED CLASS": "H"}
{"VARIANT DESCRIPTION": "A16U C54A", "ASSIGNED CLASS": "H"}
{"VARIANT DESCRIPTION": "C9G C45U", "ASSIGNED CLASS": "H"}
{"VARIANT DESCRIPTION": "G2A G5U", "ASSIGNED CLASS": "L"}
{"VARIANT DESCRIPTION": "C32U A40U", "ASSIGNED CLASS": "H"}
{"VARIANT DESCRIPTION": "C27G C39G", "ASSIGNED CLASS": "M"}
{"VARIANT DESCRIPTION": "G37A U49A", "ASSIGNED CLASS": "M"}
{"VARIANT DESCRIPTION": "G41U U55A", "ASSIGNED CLASS": "M"}
{"VARIANT DESCRIPTION": "G17C U62C", "ASSIGNED CLASS": "L"}
{"VARIANT DESCRIPTION": "C18A A23U", "ASSIGNED CLASS": "L"}
{"VARIANT DESCRIPTION": "G1C C22U", "ASSIGNED CLASS": "L"}
{"VARIANT DESCRIPTION": "G30A U62A", "ASSIGNED CLASS": "M"}
{"VARIANT DESCRIPTION": "A13U C35U", "ASSIGNED CLASS": "H"}
{"VARIANT DESCRIPTION": "C7A A16C", "ASSIGNED CLASS": "L"}
{"VARIANT DESCRIPTION": "A8U A23C", "ASSIGNED CLASS": "H"}
{"VARIANT DESCRIPTION": "U36A G41A", "ASSIGNED CLASS": "L"}
{"VARIANT DESCRIPTION": "G2C C7G", "ASSIGNED CLASS": "L"}
{"VARIANT DESCRIPTION": "A8C C54A", "ASSIGNED CLASS": "H"}
{"VARIANT DESCRIPTION": "C27U U53G", "ASSIGNED CLASS": "L"}
{"VARIANT DESCRIPTION": "G31C C54U", "ASSIGNED CLASS": "M"}
{"VARIANT DESCRIPTION": "G1U G50A", "ASSIGNED CLASS": "L"}
{"VARIANT DESCRIPTION": "C29A G41U", "ASSIGNED CLASS": "M"}
{"VARIANT DESCRIPTION": "G50A U67C", "ASSIGNED CLASS": "H"}
{"VARIANT DESCRIPTION": "G47C A51U", "ASSIGNED CLASS": "H"}
{"VARIANT DESCRIPTION": "U43G G58A", "ASSIGNED CLASS": "H"}
